So I've got a bunch of compounds here, and I need their pIC50 values.
- System: SW480 cell line
- Assay Comment: Anti-proliferative assay (MTS cell proliferation assay)
- Type: cell-based, Human
- Condition Description: SW480, 48 h of incubation; maximum tested concentration 200 μmol/L
pIC50: −log10 of the molar value.

// sample O=C(/C=C/c1ccc(O)c(O)c1)O[C@@H]1C[C@](O)(C(=O)O)C[C@@H](O)[C@H]1O [3-O-Caffeoylquinic acid, 3-O-caffeoylquinic acid] , its pIC50 was < 3.70

// sample O=C(/C=C/c1ccc(O)c(O)c1)OC1CC(O)(C(=O)O)CC(OC(=O)/C=C/c2ccc(O)c(O)c2)C1O (centres unmarked) , its pIC50 was < 3.70

// sample O=c1c(O[C@@H]2O[C@H](CO)[C@@H](O)[C@H](O)[C@H]2O)c(-c2ccc(O[C@@H]3O[C@H](CO)[C@@H](O)[C@H](O)[C@H]3O)c(O)c2)oc2cc(O)cc(O)c12 [Quercetin-3-O-glucoside-4′-O-glucoside, quercetin-3-O-glucoside-4′-O-glucoside] , its pIC50 was < 3.70

// sample O=c1c(O)c(-c2ccc(O[C@@H]3O[C@H](CO)[C@@H](O)[C@H](O)[C@H]3O)c(O)c2)oc2cc(O)cc(O)c12 [Quercetin-4′-O-glucoside, quercetin-4′-O-glucoside] , its pIC50 was 3.84

// sample O=C(/C=C/c1ccc(O)c(O)c1)O[C@@H]1C[C@](O)(C(=O)O)C[C@@H](O)[C@H]1O [5-O-Caffeoylquinic acid, 5-O-caffeoylquinic acid] , its pIC50 was < 3.70

---

- System: SW480 cell line
- Assay Comment: Cell metabolism of phenolic compounds (UHPLC-HR-MS analysis of cell media)
- Format: in vitro ADME, Human
- Condition Description: SW480, 72 h, substrate 5-O-Caffeoylquinic acid trans 50 μmol/L
Assign labels as follows, please: Criterion met for Concentration of newly formed metabolite below 700 nM; Criterion not met for Concentration of newly formed metabolite equal to or exceeding 700 nM.

Incoming: Take the molecule COc1cc(/C=C/C(=O)OC2C(O)CC(O)(C(=O)O)CC2O)ccc1O (centres unmarked) and say whether its Concentration of newly formed metabolite is less than 700 nM.
Outgoing: Criterion met

Incoming: Take the molecule `COc1cc(/C=C/C(=O)O[C@@H]2C[C@@](O)(C(=O)O)C[C@@H](O)[C@@H]2O)ccc1O` and say whether its Concentration of newly formed metabolite is less than 700 nM.
Outgoing: Criterion met

Incoming: Take the molecule O=C(/C=C/c1ccc(O)c(O)c1)O[C@@H]1C[C@](O)(C(=O)O)C[C@@H](O)[C@H]1O [5-O-Caffeoylquinic acid cis, 5-O-Caffeoylquinic acid] and say whether its Concentration of newly formed metabolite is less than 700 nM.
Outgoing: Criterion not met

Incoming: Take the molecule `O=C(O)/C=C/c1ccc(O)c(O)c1` and say whether its Concentration of newly formed metabolite is less than 700 nM.
Outgoing: Criterion met

Incoming: Take the molecule `COc1cc(/C=C/C(=O)O)ccc1O` and say whether its Concentration of newly formed metabolite is less than 700 nM.
Outgoing: Criterion met

Incoming: Take the molecule O=C(/C=C/c1ccc(O)c(O)c1)OC1[C@H](O)CC(O)(C(=O)O)C[C@H]1O (stereo partly drawn) [4-O-Caffeoylquinic acid trans, 4-O-Caffeoylquinic acid] and say whether its Concentration of newly formed metabolite is less than 700 nM.
Outgoing: Criterion not met

Incoming: Take the molecule COc1cc(/C=C/C(=O)OC2CC(O)(C(=O)O)CC(O)C2O)ccc1O (centres unmarked) and say whether its Concentration of newly formed metabolite is less than 700 nM.
Outgoing: Criterion met

---

- Test system: SW480 cell line
- Assay Comment: Cell metabolism of phenolic compounds (UHPLC-HR-MS analysis of cell media)
- Type: in vitro ADME, Human
- Condition Description: SW480, 24 h, initial 50 μmol/L
- Description: To analyze the metabolism of phenolic compounds by Caco-2 and SW480 cells, the cell culture media were withdrawn after 0, 24, 48 and 72 h of incubation. Phenolic compounds were extracted from the culture media by following the procedure reported in Sala et al.. Briefly, 100 μL of cold methanol was mixed with 100 μL of cell media and vortexed for 1 min. […] Quantification was carried out by building external calibration curves with the available standard compounds.
Measurement Label: Concentration of substrate in cell medium (µM)
Respond numerically; units are µM and should not be typed.

// sample O=C(O)Cc1cccc(O)c1 [3-(3′-Hydroxyphenyl)acetic acid, 3-(3′-hydroxyphenyl)acetic acid] , its Concentration of substrate in cell medium was 42.23

// sample O=C(/C=C/c1ccc(O)c(O)c1)OC1CC(O)(C(=O)O)CC(OC(=O)/C=C/c2ccc(O)c(O)c2)C1O (stereo not drawn) , its Concentration of substrate in cell medium was 7.13

// sample `O=c1c(O)c(-c2ccc(O)c(O)c2)oc2cc(O)cc(O)c12` , its Concentration of substrate in cell medium was 47.39

// sample O=C(O)Cc1ccc(O)c(O)c1 [3-(3′,4′-Dihydroxyphenyl)acetic acid, 3-(3′,4′-dihydroxyphenyl)acetic acid] , its Concentration of substrate in cell medium was 21.62

// sample O=C(O)CCc1cccc(O)c1 [3-(3′-Hydroxyphenyl)propanoic acid, 3-(3′-hydroxyphenyl)propanoic acid] , its Concentration of substrate in cell medium was 52.74

// sample O=c1c(O)c(-c2ccc(O[C@@H]3O[C@H](CO)[C@@H](O)[C@H](O)[C@H]3O)c(O)c2)oc2cc(O)cc(O)c12 [Quercetin-4′-O-glucoside, quercetin-4′-O-glucoside] , its Concentration of substrate in cell medium was 2.98

---

- Tested on: SW480 cell line
- Assay Comment: Cell metabolism of phenolic compounds (UHPLC-HR-MS analysis of cell media)
- Type: in vitro ADME, Human
- Condition Description: SW480, 24 h, substrate 3-O-Caffeoylquinic acid trans 50 μmol/L
- Experimental: To analyze the metabolism of phenolic compounds by Caco-2 and SW480 cells, the cell culture media were withdrawn after 0, 24, 48 and 72 h of incubation. Phenolic compounds were extracted from the culture media by following the procedure reported in Sala et al.. Briefly, 100 μL of cold methanol was mixed with 100 μL of cell media and vortexed for 1 min. […] Quantification was carried out by building external calibration curves with the available standard compounds.
Returns one of 1 or 0; 1 when Concentration of newly formed metabolite is >= 400 nM.

Incoming: Tell me whether Concentration of newly formed metabolite is at least 400 nM here: O=C(/C=C/c1ccc(O)c(O)c1)OC1[C@H](O)CC(O)(C(=O)O)C[C@H]1O (stereo partly drawn) [4-O-Caffeoylquinic acid trans, 4-O-Caffeoylquinic acid]
Outgoing: 1

Incoming: Tell me whether Concentration of newly formed metabolite is at least 400 nM here: COc1cc(/C=C/C(=O)OC2C(O)CC(O)(C(=O)O)CC2O)ccc1O (stereo not drawn)
Outgoing: 0

Incoming: Tell me whether Concentration of newly formed metabolite is at least 400 nM here: `O=C(O)/C=C/c1ccc(O)c(O)c1`
Outgoing: 1

Incoming: Tell me whether Concentration of newly formed metabolite is at least 400 nM here: `COc1cc(/C=C/C(=O)O[C@@H]2C[C@@](O)(C(=O)O)C[C@@H](O)[C@@H]2O)ccc1O`
Outgoing: 0

Incoming: Tell me whether Concentration of newly formed metabolite is at least 400 nM here: O=C(/C=C/c1ccc(O)c(O)c1)O[C@@H]1C[C@](O)(C(=O)O)C[C@@H](O)[C@H]1O [3-O-Caffeoylquinic acid cis, 3-O-Caffeoylquinic acid]
Outgoing: 1

Incoming: Tell me whether Concentration of newly formed metabolite is at least 400 nM here: COc1cc(/C=C/C(=O)OC2CC(O)(C(=O)O)CC(O)C2O)ccc1O (stereo not drawn)
Outgoing: 0

---

So I've got a bunch of molecules here, and I need their pIC50 values.
- Test system: SW480 cell line
- Assay Comment: Anti-proliferative assay (MTS cell proliferation assay)
- Assay type: cell-based, Human
- Condition Description: Homo sapiens; SW480, 48 h of incubation; maximum tested concentration 200 μmol/L
pIC50: −log10 of the molar value.

Tested on SW480 cell line: O=C(O)Cc1cccc(O)c1 [3-(3′-Hydroxyphenyl)acetic acid, 3-(3′-hydroxyphenyl)acetic acid] . Observed pIC50: < 3.70

Tested on SW480 cell line: O=C(O)Cc1ccc(O)c(O)c1 [3-(3′,4′-Dihydroxyphenyl)acetic acid, 3-(3′,4′-dihydroxyphenyl)acetic acid] . Observed pIC50: < 3.70

Tested on SW480 cell line: `O=c1c(O)c(-c2ccc(O)c(O)c2)oc2cc(O)cc(O)c12` . Observed pIC50: 4.05

---

- Tested on: SW480 cell line
- Assay Comment: Cell metabolism of phenolic compounds (UHPLC-HR-MS analysis of cell media)
- Type: in vitro ADME, Human
- Condition Description: SW480, 48 h, substrate Quercetin-3-O-glucoside-4′-O-glucoside 50 μmol/L
Measurement Label: Concentration of newly formed metabolite (nM)
Respond numerically; units are nM and should not be typed.

// sample `COc1cc(-c2oc3cc(O)cc(O)c3c(=O)c2O)ccc1O` , its Concentration of newly formed metabolite was 10

// sample `O=c1c(O)c(-c2ccc(O)c(O)c2)oc2cc(O)cc(O)c12` , its Concentration of newly formed metabolite was 40

// sample O=c1c(O[C@@H]2O[C@H](CO)[C@@H](O)[C@H](O)[C@H]2O)c(-c2ccc(O)c(O)c2)oc2cc(O)cc(O)c12 [Quercetin-3-O-glucoside] , its Concentration of newly formed metabolite was 8940

// sample `COc1ccc(-c2oc3cc(O)cc(O)c3c(=O)c2O)cc1O` , its Concentration of newly formed metabolite was 10
